Hi there, I'd appreciate the recorded pKi for every entry that follows.
# STUDY_TARGET: Delta-type opioid receptor (Homo sapiens)
# Sequence (P41143 whole entry): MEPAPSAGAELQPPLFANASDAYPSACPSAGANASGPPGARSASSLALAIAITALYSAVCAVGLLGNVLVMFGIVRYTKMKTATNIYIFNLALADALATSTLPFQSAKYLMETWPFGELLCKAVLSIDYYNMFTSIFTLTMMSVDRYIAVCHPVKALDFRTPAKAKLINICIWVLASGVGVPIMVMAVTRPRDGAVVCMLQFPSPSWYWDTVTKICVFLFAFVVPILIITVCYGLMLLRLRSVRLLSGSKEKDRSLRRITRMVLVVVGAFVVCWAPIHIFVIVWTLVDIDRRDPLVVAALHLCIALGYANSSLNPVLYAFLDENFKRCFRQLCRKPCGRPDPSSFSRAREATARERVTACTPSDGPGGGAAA
# TEST_METHOD_NOTES: Binding affinity towards Opioid receptor delta 1 was determined
Where a SMILES comes first, the peptide text is derived from it. [ ]: non-standard residue; d: D form. NMeNle = CCCC[C@H](NC)C(=O)O; dNle = CCCC[C@@H](N)C(=O)O
Note: pKi values are expressed as the negative base-10 logarithm of concentration in M.

**Query** Using the record for CCCC[C@@H](NC(=O)[C@@H](N)Cc1ccc(O)cc1)C(=O)NCC(=O)N[C@@H](Cc1c[nH]c2ccccc12)C(=O)N(C)[C@@H](CCCC)C(=O)N[C@@H](CC(=O)O)C(=O)N[C@@H](Cc1ccccc1)C(N)=O (H-Y[dNle]GW[NMeNle]DF-NH2) , state its measured pKi.
**Result** 8.80

**Query** Recall and state the measured pKi for CCCC[C@@H](C(=O)N[C@@H](CC(=O)O)C(=O)N[C@@H](Cc1ccccc1)C(N)=O)N(C)C(=O)[C@H](Cc1c[nH]c2ccccc12)NC(=O)[C@H](CCC(=O)O)NC(=O)[C@@H](Cc1ccccc1)NC(=O)[C@@H](N)Cc1ccc(O)cc1 .
**Result** 8.17

**Query** Hello, please tell me recorded pKi for this one: CCCC[C@@H](C(=O)N[C@@H](CC(=O)O)C(=O)N[C@@H](Cc1ccccc1)C(N)=O)N(C)C(=O)[C@@H](Cc1c[nH]c2ccccc12)NC(=O)CNC(=O)[C@@H](Cc1ccccc1)NC(=O)[C@@H](N)Cc1ccc(O)cc1 (H-Y[dF]G[dW][NMeNle]DF-NH2)
**Result** 9.30

**Query** Return reported pKi. Input compound: CCCC[C@@H](C(=O)N[C@@H](CC(=O)O)C(=O)N[C@@H](Cc1ccccc1)C(N)=O)N(C)C(=O)[C@H](Cc1c[nH]c2ccccc12)NC(=O)CNC(=O)CNC(=O)[C@@H](N)Cc1ccc(O)cc1 (H-YGGW[NMeNle]DF-NH2)
**Result** 5.70

**Query** Return the recorded pKi value; entry: CCCC[C@@H](C(=O)N[C@@H](CC(=O)O)C(=O)N[C@@H](Cc1ccccc1)C(N)=O)N(C)C(=O)[C@@H](Cc1c[nH]c2ccccc12)NC(=O)CNC(=O)[C@@H](C)NC(=O)[C@@H](N)Cc1ccc(O)cc1 (H-Y[dA]G[dW][NMeNle]DF-NH2)
**Result** 8.72
